- Experimental target: T1, hCMV gH + gL + UL128 + UL130 + UL131A (5-member complex; HEK293T co-transfectant) (hCMV, UniProt P12824 24-743; P16832 31-278; P16837 1-171; P16772 1-214)
- T1 construct: whole, on cells; in the functional rows it stands for the complex on virions or transduced cells of the strain or isolate named in the readout; also called gH/gL/UL128-131A complex; pentameric complex
- Test method notes: cell competition; competitor 1F11-biotin
Outcome measure: Inhibition of binding (%)
The reply should contain only the number, in %.

Query block: Provide one value: measured Inhibition of binding (%) of 10P3 (antibody, V domains shown, human IgG) VH: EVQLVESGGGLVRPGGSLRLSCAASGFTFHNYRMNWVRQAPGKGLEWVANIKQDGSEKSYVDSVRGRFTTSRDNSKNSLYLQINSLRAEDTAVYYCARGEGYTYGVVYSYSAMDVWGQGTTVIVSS VL: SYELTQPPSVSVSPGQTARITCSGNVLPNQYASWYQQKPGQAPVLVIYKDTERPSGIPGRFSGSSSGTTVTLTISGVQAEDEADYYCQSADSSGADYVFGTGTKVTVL
Result block: 0
